EXPERIMENT SUMMARY: Inhibition of PKA
EXPERIMENTAL READOUT: pIC50
Conceptually, pIC50 converts a concentration in mol/L into minus its log10.

Req: Param item = O=C1C=C(c2ccc(O)c(O)c2O)C(=O)c2c1cccc2[N+](=O)[O-] ; retrieve measured pIC50.
Resp: 4.85

---

Target chain: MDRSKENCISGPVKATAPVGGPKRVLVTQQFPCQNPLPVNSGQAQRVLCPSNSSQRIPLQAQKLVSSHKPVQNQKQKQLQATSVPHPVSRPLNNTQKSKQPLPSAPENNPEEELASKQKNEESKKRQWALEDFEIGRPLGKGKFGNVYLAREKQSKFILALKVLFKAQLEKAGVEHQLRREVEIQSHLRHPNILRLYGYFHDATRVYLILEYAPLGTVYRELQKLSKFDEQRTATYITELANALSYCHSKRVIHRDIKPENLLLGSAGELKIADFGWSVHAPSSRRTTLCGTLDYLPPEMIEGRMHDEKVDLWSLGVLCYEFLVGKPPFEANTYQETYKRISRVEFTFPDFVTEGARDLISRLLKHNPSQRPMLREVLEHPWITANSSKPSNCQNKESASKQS
EXPERIMENTAL READOUT: pIC50
Conceptually, pIC50 converts a concentration in mol/L into minus its log10.

Req: Param item = O=C1C=C(c2ccc(O)c(O)c2O)C(=O)c2c1cccc2[N+](=O)[O-] ; retrieve measured pIC50.
Resp: 5.32

Further cases:
Req: Param item = O=C1C=C(c2ccc(O)c(O)c2O)C(=O)c2c(O)ccc(O)c21 ; retrieve measured pIC50.
Resp: 5.21
